# TEST METHOD NOTES: Phototherapeutic index, ratio of IC50 for dark cytotoxicity against human U-87 MG cells to IC50 for light cytotoxicity against human U-87 MG cells preincubated for 6 to 24 hrs followed by light irradiation for 20 min and measured after 24 hrs dark incubation by Alamar blue assay
# Type: cell-based, U-87MG ATCC
# CONDITION SET: time 6-24 hrs, read-out: Ratio IC50
The molecules listed here are annotated with their selectivity ratio at 24 h.

SMILES STR | selectivity ratio at 24 h
CC1(C)C(/C=C/C2=C(Cl)C(=C/C=C3/N(CCCCCC(=O)O)c4ccc(I)cc4C3(C)C)/C[N+](C)(C)C2)=[N+](CCCCCC(=O)O)c2ccc(I)cc21 | 72.8
CC1(C)C(/C=C/C2=C(Cl)C(=C/C=C3/N(CCCCCC(=O)O)c4ccc(I)cc4C3(C)C)/CCC2)=[N+](CCCCCC(=O)O)c2ccc(I)cc21 | 2.56
